Target desc: Human immunodeficiency virus type 1 reverse transcriptase (Human immunodeficiency virus 1)
Method description: Compound ability to inhibit the production of HIV reverse transcriptase (RT) in preinfected PBL (peripheral blood lymphocytes) at 7 days at a concentration 5 uM
Assay type: functional
Entries and their measured Activity (c.p.m. 50ul-1) follow.

Compound	Activity (c.p.m. 50ul-1)
CCCCCCCCCCCCCCCCOP(=O)(OC[C@H]1OC(O)[C@H](O)[C@@H](O)[C@@H]1O)OC[C@H]1OC(n2cc(C)c(=O)[nH]c2=O)C[C@@H]1N=[N+]=[N-] (stereo partly specified)	8210
Cc1cn([C@H]2C[C@H](N=[N+]=[N-])[C@@H](COP(=O)(O)OC[C@H]3OC(O)[C@@H](O)[C@@H](O)[C@@H]3O)O2)c(=O)[nH]c1=O (stereo partly specified)	967
Cc1cn([C@H]2C[C@H](N=[N+]=[N-])[C@@H](COP(=O)(O)OC[C@H]3OC(O)[C@H](O)[C@@H](O)[C@@H]3O)O2)c(=O)[nH]c1=O (stereo partly specified)	890
Cc1cn([C@H]2C[C@H](N=[N+]=[N-])[C@@H](COP(=O)(O)OCCO[C@H]3O[C@H](CO)[C@@H](O)[C@H](O)[C@@H]3O)O2)c(=O)[nH]c1=O	855
CCCCCCCCCCCCCCCCOP(=O)(OC[C@H]1OC(O)[C@@H](O)[C@@H](O)[C@@H]1O)OC[C@H]1OC(n2cc(C)c(=O)[nH]c2=O)C[C@@H]1N=[N+]=[N-] (stereo partly specified)	3140
Cc1cn([C@H]2C[C@H](N=[N+]=[N-])[C@@H](CO)O2)c(=O)[nH]c1=O	965

----------
Tested on: CCRF-CEM
Method description: Concentration required to reduce the viability of uninfected cells (CEM-CL13) by 50% on day 19.
Format: functional
Condition context: Homo sapiens, 456 h, read-out: CD50 (the source's name)
Attribute: CC50

Compound	CC50, µM
CCCCCCCCCCCCCCCCOP(=O)(OCCO[C@H]1O[C@H](CO)[C@@H](O)[C@H](O)[C@@H]1O)OCC1OC(n2cc(C)c(=O)[nH]c2=O)CC1N=[N+]=[N-] (some centres not stated)	3.4
Cc1cn([C@H]2C[C@H](N=[N+]=[N-])[C@@H](COP(=O)(O)OC[C@H]3OC(O)[C@H](O)[C@@H](O)[C@@H]3O)O2)c(=O)[nH]c1=O (some centres not stated)	38
CCCCCCCCCCCCCCCCOP(=O)(OC[C@H]1OC(O)[C@H](O)[C@@H](O)[C@@H]1O)OC[C@H]1OC(n2cc(C)c(=O)[nH]c2=O)C[C@@H]1N=[N+]=[N-] (some centres not stated)	3.2
Cc1cn([C@H]2C[C@H](N=[N+]=[N-])[C@@H](CO)O2)c(=O)[nH]c1=O	26
Cc1cn([C@H]2C[C@H](N=[N+]=[N-])[C@@H](COP(=O)(O)OCCO[C@H]3O[C@H](CO)[C@@H](O)[C@H](O)[C@@H]3O)O2)c(=O)[nH]c1=O	30
Cc1cn([C@H]2C[C@H](N=[N+]=[N-])[C@@H](COP(=O)(O)OC[C@H]3OC(O)[C@@H](O)[C@@H](O)[C@@H]3O)O2)c(=O)[nH]c1=O (some centres not stated)	24
CCCCCCCCCCCCCCCCOP(=O)(OC[C@H]1OC(O)[C@@H](O)[C@@H](O)[C@@H]1O)OC[C@H]1OC(n2cc(C)c(=O)[nH]c2=O)C[C@@H]1N=[N+]=[N-] (some centres not stated)	2.5

----------
Target desc: Human immunodeficiency virus type 1 reverse transcriptase (Human immunodeficiency virus 1) (UniProt Q72547)
Method description: Percent inhibition measured as the production of HIV reverse transcriptase (RT) in culture supernatant of monocytic U937 on at 11 days at a concentration 0.2 uM
Assay type: functional

Molecule	inhibition
CCCCCCCCCCCCCCCCOP(=O)(OC[C@H]1OC(O)[C@H](O)[C@@H](O)[C@@H]1O)OC[C@H]1OC(n2cc(C)c(=O)[nH]c2=O)C[C@@H]1N=[N+]=[N-] (some centres undefined)	0%
CCCCCCCCCCCCCCCCOP(=O)(OCCO[C@H]1O[C@H](CO)[C@@H](O)[C@H](O)[C@@H]1O)OCC1OC(n2cc(C)c(=O)[nH]c2=O)CC1N=[N+]=[N-] (some centres undefined)	9%
Cc1cn([C@H]2C[C@H](N=[N+]=[N-])[C@@H](CO)O2)c(=O)[nH]c1=O	0%
CCCCCCCCCCCCCCCCOP(=O)(OC[C@H]1OC(O)[C@@H](O)[C@@H](O)[C@@H]1O)OC[C@H]1OC(n2cc(C)c(=O)[nH]c2=O)C[C@@H]1N=[N+]=[N-] (some centres undefined)	0%

----------
Target desc: Human immunodeficiency virus type 1 reverse transcriptase (Human immunodeficiency virus 1) (UniProt Q72547)
Method description: Compound ability to inhibit the production of HIV reverse transcriptase (RT) in culture supernatant of monocytic U937 on at 14 days at a concentration 1 uM
Format: functional
Listed next: entries and their corresponding Activity (c.p.m. 50ul-1).
Quantity: Activity (c.p.m. 50ul-1)

Molecule	Data value
CCCCCCCCCCCCCCCCOP(=O)(OC[C@H]1OC(O)[C@H](O)[C@@H](O)[C@@H]1O)OC[C@H]1OC(n2cc(C)c(=O)[nH]c2=O)C[C@@H]1N=[N+]=[N-] (some centres not stated)	4000
CCCCCCCCCCCCCCCCOP(=O)(OCCO[C@H]1O[C@H](CO)[C@@H](O)[C@H](O)[C@@H]1O)OCC1OC(n2cc(C)c(=O)[nH]c2=O)CC1N=[N+]=[N-] (some centres not stated)	55000
CCCCCCCCCCCCCCCCOP(=O)(OC[C@H]1OC(O)[C@@H](O)[C@@H](O)[C@@H]1O)OC[C@H]1OC(n2cc(C)c(=O)[nH]c2=O)C[C@@H]1N=[N+]=[N-] (some centres not stated)	35000
Cc1cn([C@H]2C[C@H](N=[N+]=[N-])[C@@H](COP(=O)(O)OCCO[C@H]3O[C@H](CO)[C@@H](O)[C@H](O)[C@@H]3O)O2)c(=O)[nH]c1=O	25000
Cc1cn([C@H]2C[C@H](N=[N+]=[N-])[C@@H](COP(=O)(O)OC[C@H]3OC(O)[C@H](O)[C@@H](O)[C@@H]3O)O2)c(=O)[nH]c1=O (some centres not stated)	17000
Cc1cn([C@H]2C[C@H](N=[N+]=[N-])[C@@H](CO)O2)c(=O)[nH]c1=O [ZIDOVUDINE]	37000
Cc1cn([C@H]2C[C@H](N=[N+]=[N-])[C@@H](COP(=O)(O)OC[C@H]3OC(O)[C@@H](O)[C@@H](O)[C@@H]3O)O2)c(=O)[nH]c1=O (some centres not stated)	22500

----------
List of inhibition values.
Target desc: Human immunodeficiency virus type 1 reverse transcriptase (Human immunodeficiency virus 1) (UniProt Q72547)
Method description: Percent inhibition evaluated for anti-RT activity at 0 days of culture
Format: functional
Parameters: concentration or dose not given beside the values
Condition context: concentration not given here

Compound	Measure unit	inhibition
Cc1cn([C@H]2C[C@H](N=[N+]=[N-])[C@@H](COP(=O)(O)OC[C@H]3OC(O)[C@H](O)[C@@H](O)[C@@H]3O)O2)c(=O)[nH]c1=O (stereo partly specified)	%	0
CCCCCCCCCCCCCCCCOP(=O)(OCCO[C@H]1O[C@H](CO)[C@@H](O)[C@H](O)[C@@H]1O)OCC1OC(n2cc(C)c(=O)[nH]c2=O)CC1N=[N+]=[N-] (stereo partly specified)	%	26
CCCCCCCCCCCCCCCCOP(=O)(OC[C@H]1OC(O)[C@H](O)[C@@H](O)[C@@H]1O)OC[C@H]1OC(n2cc(C)c(=O)[nH]c2=O)C[C@@H]1N=[N+]=[N-] (stereo partly specified)	%	9
CCCCCCCCCCCCCCCCOP(=O)(OC[C@H]1OC(O)[C@@H](O)[C@@H](O)[C@@H]1O)OC[C@H]1OC(n2cc(C)c(=O)[nH]c2=O)C[C@@H]1N=[N+]=[N-] (stereo partly specified)	%	30
Cc1cn([C@H]2C[C@H](N=[N+]=[N-])[C@@H](COP(=O)(O)OC[C@H]3OC(O)[C@@H](O)[C@@H](O)[C@@H]3O)O2)c(=O)[nH]c1=O (stereo partly specified)	%	0
Cc1cn([C@H]2C[C@H](N=[N+]=[N-])[C@@H](COP(=O)(O)OCCO[C@H]3O[C@H](CO)[C@@H](O)[C@H](O)[C@@H]3O)O2)c(=O)[nH]c1=O	%	0

----------
inhibition listing for selected molecules.
Target desc: Human immunodeficiency virus type 1 reverse transcriptase (Human immunodeficiency virus 1)
Method description: Percent inhibition evaluated for anti-RT activity at 7 days of culture
Assay type: functional
Design: concentration or dose not given beside the values
Condition context: concentration not given here

Molecule	inhibition / %
CCCCCCCCCCCCCCCCOP(=O)(OC[C@H]1OC(O)[C@@H](O)[C@@H](O)[C@@H]1O)OC[C@H]1OC(n2cc(C)c(=O)[nH]c2=O)C[C@@H]1N=[N+]=[N-] (some centres not stated)	71
Cc1cn([C@H]2C[C@H](N=[N+]=[N-])[C@@H](COP(=O)(O)OC[C@H]3OC(O)[C@@H](O)[C@@H](O)[C@@H]3O)O2)c(=O)[nH]c1=O (some centres not stated)	62
Cc1cn([C@H]2C[C@H](N=[N+]=[N-])[C@@H](COP(=O)(O)OCCO[C@H]3O[C@H](CO)[C@@H](O)[C@H](O)[C@@H]3O)O2)c(=O)[nH]c1=O	25
CCCCCCCCCCCCCCCCOP(=O)(OCCO[C@H]1O[C@H](CO)[C@@H](O)[C@H](O)[C@@H]1O)OCC1OC(n2cc(C)c(=O)[nH]c2=O)CC1N=[N+]=[N-] (some centres not stated)	0
Cc1cn([C@H]2C[C@H](N=[N+]=[N-])[C@@H](COP(=O)(O)OC[C@H]3OC(O)[C@H](O)[C@@H](O)[C@@H]3O)O2)c(=O)[nH]c1=O (some centres not stated)	70
CCCCCCCCCCCCCCCCOP(=O)(OC[C@H]1OC(O)[C@H](O)[C@@H](O)[C@@H]1O)OC[C@H]1OC(n2cc(C)c(=O)[nH]c2=O)C[C@@H]1N=[N+]=[N-] (some centres not stated)	87
Cc1cn([C@H]2C[C@H](N=[N+]=[N-])[C@@H](CO)O2)c(=O)[nH]c1=O [ZIDOVUDINE]	92
